Give measured melting point for each item. Keep answers brief.

Input: Tell me the measured melting point of CCCN(c1ccncc1F)n1c(C)cc2ccccc21 , please.
Output: 5 °C

Input: Tell me the measured melting point of CNc1cc([N+](=O)[O-])cc([N+](=O)[O-])c1 , please.
Output: 153 to 154 °C

Input: Tell me the measured melting point of CS(=O)(=O)N1CCC(NC(=O)Nc2cccc(F)c2)CC1 , please.
Output: 212 to 214 °C

Input: Tell me the measured melting point of CC(C)(C)c1ccc(NC(=O)N2CCC3(CC2)CC(CCc2ccccc2)=NO3)cc1 , please.
Output: 153 to 154 °C

Input: Tell me the measured melting point of N#CCc1cc(C(=O)c2ccc(Cl)cc2)cn1Cc1ccccc1 , please.
Output: 102 to 104 °C

Input: Tell me the measured melting point of COc1ccc(C(=O)Nc2ccccc2)cc1NCc1ccc2c(c1)OCO2 , please.
Output: 185 to 187 °C

Input: Tell me the measured melting point of O=C(Nc1cnc2[nH]ccc2c1)c1cc2cc(F)ccc2n1Cc1cccc(F)c1 , please.
Output: 266 to 267 °C

Input: Tell me the measured melting point of O=C(OCCn1ccnc1)c1ccccc1O , please.
Output: 74 to 75 °C

Input: Tell me the measured melting point of CCOC(=O)Cc1ccc2cc(O)ccc2c1 , please.
Output: 81 to 83 °C

Input: Tell me the measured melting point of O=C(NCl)c1cccc(C(=O)NCl)c1 , please.
Output: 73.5 to 75 °C

Input: Tell me the measured melting point of C=CCn1c(C(F)(F)F)nc2ccc(-n3c(=O)cc(C(F)(F)F)n(C)c3=O)cc21 , please.
Output: 171 to 173 °C

###

Readout label: melting point

Input: Tell me the measured melting point of CCOP(=O)(CCC1(C)NC(=O)NC1=O)OCC (stereo not given) , please.
Output: 100 to 103 °C

Input: Tell me the measured melting point of Clc1ccc(-c2c(-c3ccccc3)nn3ccccc23)nn1 , please.
Output: 206 °C

Input: Tell me the measured melting point of CC(C)C1N(C)CCCN1C(=O)NC(C)C1CC(N=C=O)CC(C)(C)C1 (stereo not given) , please.
Output: 180 to 192 °C

Input: Tell me the measured melting point of CCC(CC)O[C@@H]1C=C(C(=O)OC)C[C@H](CC(O)CN=[N+]=[N-])[C@H]1NC(C)=O (stereo not given in full) , please.
Output: 92 to 93 °C

Input: Tell me the measured melting point of Cc1noc(-c2cccc(NC(=O)Oc3ccc([N+](=O)[O-])cc3)c2)n1 , please.
Output: 217 to 220 °C

Input: Tell me the measured melting point of NCCOc1ccc(CC2SC(=O)NC2=O)cc1 (stereo not given) , please.
Output: 175 to 176 °C

Input: Tell me the measured melting point of CC(O)(C(=O)O)c1cccc(OCc2ccc3ccccc3c2)c1 (single isomer, unassigned; (-)) , please.
Output: 104 to 106 °C

Input: Tell me the measured melting point of O=C(OCc1ccccc1)N1CCC2(CC1)CN(c1ccccc1)C(=O)O2 , please.
Output: 100 to 102 °C

Input: Tell me the measured melting point of CCc1cccc(C)c1N1C(=O)C=CC1=O , please.
Output: 84.5 to 85 °C

Input: Tell me the measured melting point of COc1ccc(SC)c2c1CC(N)(C#N)CC2 (stereo not given) , please.
Output: 128 to 130 °C
